Just for reference, patent US12344603B2 is where these values come from.

Target System: IRE1α (Homo sapiens (Human), UniProt O75460, D688N)
Sequence (O75460 547-977 D688N): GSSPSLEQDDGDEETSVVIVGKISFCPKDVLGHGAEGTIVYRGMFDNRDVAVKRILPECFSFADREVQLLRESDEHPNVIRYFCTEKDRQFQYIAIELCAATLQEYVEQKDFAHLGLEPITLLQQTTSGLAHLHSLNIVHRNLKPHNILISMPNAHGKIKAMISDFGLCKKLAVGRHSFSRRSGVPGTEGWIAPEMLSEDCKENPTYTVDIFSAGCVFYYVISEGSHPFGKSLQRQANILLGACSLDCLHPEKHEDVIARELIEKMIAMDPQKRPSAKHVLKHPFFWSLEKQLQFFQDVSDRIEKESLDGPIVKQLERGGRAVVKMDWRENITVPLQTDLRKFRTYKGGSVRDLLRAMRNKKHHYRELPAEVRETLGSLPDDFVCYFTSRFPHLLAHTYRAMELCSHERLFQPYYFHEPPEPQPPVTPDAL
Test Protocol: IRE1α TR-FRET competition binding assay (IRE1α HTRF)
Measurement Setup: TR-FRET competition binding to kinase domain of IRE1α
Property Measured: IC50 (nM)
Answers are plain numbers, in nM.

Worked cases, answers included:
Compound	Target System	IC50 (nM)
Cc1ccc(CS(=O)(=O)Nc2c(F)cc(-c3cc4cnc(N[C@@H]5CNC[C@@H](F)C5)nc4n(C(C)C)c3=O)c(F)c2F)c(C#N)c1 [Compound 107]	IRE1α (Homo sapiens (Human), UniProt O75460, D688N)	0.13
CC(C)n1c(=O)c(-c2cc(F)c(NS(=O)(=O)CC3(C(F)(F)F)CC3)c(F)c2)nc2cnc(N[C@H]3CC[C@H](N(C)C)CC3)nc21 [Example 240]	IRE1α (Homo sapiens (Human), UniProt O75460, D688N)	0.1
CC(C)n1c(=O)c(-c2c(F)cc(NS(=O)(=O)CCC(F)(F)F)cc2F)nc2cnc(N[C@H]3CC[C@H](N(C)C)CC3)nc21 [Compound 169]	IRE1α (Homo sapiens (Human), UniProt O75460, D688N)	0.69

Dear colleague, could you send me IC50 for each of the items below? Thanks.
1. CC(C)n1c(=O)c(-c2ccc(NS(=O)(=O)Cc3ccccc3)c(F)c2)nc2cnc(N[C@@H]3CNC[C@@](C)(F)C3)nc21 [Compound 64]
2. CC(C)n1c(=O)c(-c2ccc(NS(=O)(=O)CC3CCC3(F)F)c(F)c2)nc2cnc(N[C@H]3CC[C@H](N(C)C)CC3)nc21 (mixture of isomers) [Example 263]
3. CC(C)n1c(=O)c(-c2ccc(NS(=O)(=O)CC3CCCCC3)c(F)c2)nc2cnc(N[C@H]3CC[C@H](N(C)C)CC3)nc21 [Example 269]

1. 0.21
2. 0.1
3. 0.2

###

Target System: IRE1α (Homo sapiens (Human), UniProt O75460, D688N)
Test Protocol: IRE1α TR-FRET competition binding assay (IRE1α HTRF)
Measurement Setup: TR-FRET competition binding to kinase domain of IRE1α
Property Measured: pIC50
One number for each entry, as −log10 of the molar value.

Worked cases, answers included:
Molecule	Property Measured	Result Number
CC(C)n1c(=O)c(-c2ccc(NS(=O)(=O)CCC(F)(F)F)c(F)c2)cc2cnc(NC3CCC4(CC3)CNC4)nc21	pIC50	8.30
CC(C)n1c(=O)c(-c2ccc(NS(=O)(=O)CC3CC(F)(F)C3)c(F)c2)nc2cnc(N[C@@H]3CC[C@@H](N(C)C)[C@H](F)C3)nc21 (stereo in doubt) [Compound 193B]	pIC50	9.77

// "CCn1c(=O)c(-c2ccc(NS(=O)(=O)Cc3ccccc3)c(F)c2F)cc2cnc(N[C@H]3CCCNC3)nc21" : pIC50 value = 9.17

###

Target System: IRE1α (Homo sapiens (Human), UniProt O75460, D688N)
Test Protocol: IRE1α TR-FRET competition binding assay (IRE1α HTRF)
Measurement Setup: TR-FRET competition binding to kinase domain of IRE1α
Property Measured: log10 IC50 (log10 of the value in nM)
Could you please treat all values as log10 of IC50 in nM?

Worked cases, answers included:
Compound	log10 IC50
Cn1c(=O)c(-c2ccc(NS(=O)(=O)Cc3ccccc3)c(F)c2F)cc2cnc(N[C@@H]3CNC[C@@H](F)C3)nc21	0.32
CC(C)n1c(=O)c(-c2cc(F)c(NS(=O)(=O)Cc3ccccc3)c(F)c2F)nc2cnc(N[C@@H]3CNC[C@@H](F)C3)nc21	-0.77
CC(C)n1c(=O)c(-c2ccc(NS(=O)(=O)Cc3ccccc3F)cn2)cc2cnc(N[C@@H]3CNC[C@@H](F)C3)nc21	-0.34
CC(C)n1c(=O)c(-c2ccc(NS(=O)(=O)CCC(F)(F)F)c(F)c2)cc2cnc(N[C@H]3CCC[C@H](N)C3)nc21	1.41
CC(C)n1c(=O)c(-c2ccc(NS(=O)(=O)CCC(F)(F)F)c(F)c2F)cc2cnc(N[C@H]3CC[C@H](N(C)C)CC3)nc21	-0.59
CC(C)n1c(=O)c(-c2cc(F)c(NS(=O)(=O)Cc3ccc(C(F)F)cc3)c(F)c2)cc2cnc(N[C@H]3CC[C@H](N(C)C)CC3)nc21	-0.72
CC(C)n1c(=O)c(-c2ccc(NS(=O)(=O)Cc3ccccc3)c(F)c2)nc2cnc(N[C@@H]3CNC[C@@H](F)C3)nc21	-0.55
CC(C)n1c(=O)c(-c2ccc(NS(=O)(=O)c3ccccc3)c(F)c2)nc2cnc(N[C@@H]3CNC[C@@H](F)C3)nc21	-0.22

Dear colleague, could you send me log10 IC50 for each of the items below? Thanks.
1. CC(C)n1c(=O)c(-c2ccc(NS(=O)(=O)CC3CC(F)(F)C3)c(F)c2)nc2cnc(N[C@H]3CC[C@H](N(C)C)[C@@H](F)C3)nc21 (stereo in doubt) [Compound 193A]
2. CC(C)n1c(=O)c(-c2ccc(NS(=O)(=O)C3CCC(F)(F)CC3)c(F)c2)nc2cnc(N[C@H]3CC[C@H](N(C)C)CC3)nc21
3. CC(C)n1c(=O)c(-c2ccc(NS(=O)(=O)Cc3ccc(F)cc3)c(F)c2)nc2cnc(N[C@H]3CC[C@H](N(C)C)[C@@H](F)C3)nc21 (stereo in doubt) [Compound 181B]
4. CC(C)n1c(=O)c(-c2cc(F)c(NS(=O)(=O)Cc3ccccc3C#N)c(F)c2F)cc2cnc(N[C@@H]3CNC[C@@H](F)C3)nc21

1. -0.70
2. -0.70
3. -0.82
4. -0.47
